- System: P388 leukemia ip, CD2F1 mice, survival T/C
- ASSAY EXPLANATION: NCI In Vivo Anticancer Drug Screen. Data for tumor model P388 Leukemia (intraperitoneal) in CD2F1 (CDF1) mice
- STATED CONDITIONS: endpoint: median survival time; dose: 6.25 mg/kg/injection; schedule: Q01DX005 (ip); vehicle: saline; higher = longer survival
Toxic doses and inconclusive results are not listed.
Let's look at some compounds and their measured T/C.
MEASUREMENT TYPE: T/C

> print(dat)
                         compound.structure    measured.value
1  OC(CCC(O)(C(F)(F)F)C(F)(F)F)(C(F)(F)F)C(F)(F)F   99 % of control
2     COC1=CC(=Nc2cc(Br)c(O)c(Br)c2)C=CC1=O  105 % of control
3           O=C(O)c1cc2c(c(C(=O)O)c1O)CCCC2   94 % of control
4                      CC(=O)OCC#CCN1CCCCC1  102 % of control

----------
- Tested on: P388 leukemia ip, CD2F1 mice, survival T/C
- ASSAY EXPLANATION: NCI In Vivo Anticancer Drug Screen. Data for tumor model P388 Leukemia (intraperitoneal) in CD2F1 (CDF1) mice
- STATED CONDITIONS: endpoint: median survival time; dose: 200.0 mg/kg/injection; schedule: Q01DX009 (ip); vehicle: Klucel (hydroxypropylcellulose) (HPC); higher = longer survival
Inconclusive results and toxic doses are left out.
MEASUREMENT TYPE: T/C

> print(dat)
                                    compound  measurement.type    measured.value
 1  CCOC(=O)CCS(=O)c1ccccc1 (stereo not given)               T/C  104 % of control
 2  CC(/C=N/N=C1\C(=O)Nc2ccccc21)=C\c1ccccc1               T/C  100 % of control
 3              Cc1ccc2c(c1)sc1n[nH]c(=S)n12               T/C  100 % of control
 4  Cc1nc(-c2ccccc2)c2c(C)[nH]c(-c3ccccc3)c2n1               T/C  104 % of control
 5        Cc1ccc(N2C(=O)CC3(CCCCC3)C2=O)cc1C               T/C   97 % of control
 6  S=C(SSC(=S)C1CCCC1=NC1CCCCC1)C1CCCC1=NC1CCCCC1 (stereo not given)               T/C  108 % of control
 7                       Nc1cc(N)n(N)c(=S)n1               T/C  108 % of control
 8           CC(C)c1ncc(CO)n1Cc1c(Cl)cccc1Cl               T/C  100 % of control
 9  CCCCCCOC(=O)CC1CC(C(C)=O)C1(C)C (stereo not given)               T/C  109 % of control
10  OCCCCP12(OC(C(F)(F)F)(C(F)(F)F)c3ccccc31)OC(C(F)(F)F)(C(F)(F)F)c1ccccc12               T/C  102 % of control
11  CCOC(=O)c1ccc(NC(=S)P(=O)(c2ccccc2)c2ccccc2)cc1               T/C   94 % of control
12    COc1cc(/C=C2\C(=O)C3CCN2CC3)cc(OC)c1OC               T/C  114 % of control
13              CC(=O)N1C=CC(=Cc2ccccc2)C=C1               T/C   99 % of control
14                  CSc1nc2ccc(NC(C)=O)cc2s1               T/C   90 % of control
15             CCCCC/C=C\C/C=C\CCCCCCCC(=O)O               T/C  107 % of control
16  CC(C)Oc1ccc(C(=O)NS(=O)(=O)c2ccc(N=CC3C(=O)N(c4ccccc4)N(c4ccccc4)C3=O)cc2)cc1               T/C   86 % of control
17              CSc1ccc(NC(=O)Oc2ccccc2I)cc1               T/C  109 % of control
18                 C1CN(/N=N/c2nn[nH]n2)CCO1               T/C  106 % of control
19  CCCCCCN(CCCCCC)CC(O)c1ccc2c3c(cccc13)CC2 (stereo not given)               T/C  100 % of control
20  CC(=O)OC1CCC2(C)C(=CCC3C2CCC2(C)C(OC(C)=O)/C(=C/C(=O)O)CC32)C1 (stereo not given)               T/C   90 % of control
21                         CCOC(=O)Cc1ccccn1               T/C  110 % of control
22            NC(=O)NCCSc1ccc(SCCNC(N)=O)nn1               T/C   98 % of control
23                       CC(=O)/C=C/c1ccccc1               T/C  103 % of control
24      O=C(CCl)c1ccc2ccc3c(c2c1)Nc1ccccc1S3               T/C   93 % of control
25                         N#Cc1ccc(N)cc1C#N               T/C   96 % of control
